biological target: pooled human IgG (human); experiment: cell-based or functional assay; also: test concentration or dose not given here
Recorded Enzyme Activity Endpoint Assay (purified): scIgG for the following binders

These solved cases illustrate the format of a correct answer.
>>> observed("PRT-211 (enzyme) MEVVEVWPYGQNPNGKTEILSQTEDSESLQRLRDIEDFQAEKKKQGVVYTKWLDGVDVDDHDFRKIVDGNIAYYATPLLNGKGFYDINKDFNRDSDKCAAAVAANMFHYWLDQNRDNVDRFLRQNPEKHGIIELPDGQLKLSDFLNTYESDNGYRDKSKLFDFISNNFNGPVWTDKLLDNYINGYAYNYKYGRTIEDPTKNTSKINFFKDVFNEKILTNIHSIRNYNTFSNLLSEALYTGKAIGLSYGPAGLRHSLGHIISVWGADLDEDGNVVAIYVTDSDDKKLTIGDERVGLKRYKISTDDEGRARLTAYEENDNTGGEIRGLWTLDTGKQAWADYFDKTEQTGTDQAEQLEHHHHHH")
"0 ng/µL"
>>> observed("PRT-197 (enzyme) MEVVEVWPYGQNPNGKTEILSQTEDSESLQRLRDIEDFQAEKKMQNVVYTKWLDGVDVKDHDFRKIVDGNIAYYATPLLNGRGFYDINKDFNRDSDKCAAAVAANMFHYWLDINRDNVDRFLRQNPEKHGIIELPDGQLKLSDFLNTYESDHGYRDKSKLFDFISNNFNGPVWTDKLLDNYINGYAYNYKYGRTIEDPTKNTSKINFFKEVFNEKILTNNHSIRNQNEFSDLLSEALYTGKAIGLSYGPAGLRHSLGHIISVWGADLDADGNVVAIYVTDSDDKKLTIGDERVGLKRYKISTDDENRARLTAYEETDNTGGQIRGLYTLDTGKQAWADYFDKTEQTGTDQAEQLEHHHHHH")
"121 ng/µL"
>>> observed("PRT-221 (enzyme) MEVVEVWPYGQNPNGKTEILSQTEDSESLQRLRDIEDFQAEKKMQNVVYTKWLDGVDVKDHDFRKIVDGNIAYYATPLLNGRGFYDINKDFNRDSDKCAAAVAANMFHYWLDINRDNVDRFLRQNPEKHGIIELPDGQLKLSDFLNTYESDHGYRDKSKLFDFISNNFNGPVWTDKLLDNYINGYAYNYKYGRTIEDPTKNTSKINFFKEVFNEKILTNNHSIRNQNEFSVLLSEALYTGKAIGLSYGPAGLRHSLGHIISVWGADLDADGNVVAIYVTDSDDKKLTIGDERVGLKRYKISTDDENRLRLTAYEETHNTGGQIRGLWTLDTGKQAWADYFDKTEQTGTDQAEQLEHHHHHH")
"461 ng/µL"
>>> observed("PRT-226 (enzyme) MEVVEVWPYGQNPNGKTEILSQTEDSESLQRLRDIEDFQAEKKKQNVVYTKWLDGVDVDDHDFRKIVDGNTEYYATPLLNGRGFYDINKDFNRDSDKCAAAVAANMFHYWLDRNRDNVDRFLRQNPEKHGIIELPDGQLKLSDFLNTYESDHGYRDKSKLFDFISNNFNGPVWTNKLLDNYINGYGYNYKYGRTIEDPTKNTSKINFFKEVFNEKILTNNHSIRNQNEFSVLLSEALYTGKAIGLSYGPAGLRHSLGHIISVWGADLDADGNVVAIYVTDSDDKKLTIGDERVGLKRYKISTDDEGRARLTAYEETDNTGGQIRGLWTLDTGKQAWADYFDKTEQTGTDQAEQLEHHHHHH")
"0 ng/µL"
>>> observed("PRT-219 (enzyme) MEVVEVWPYGQNPNGKTEILSQTEDSESLQRLRDIEDFQAEKKKQNVVYTKWLDGVTVDDSDFRKIKDGNTEYYATPLLNGRGFYDINKDFNRDSDKCAAAVAANMFHYWLDRNRDNVDRFLKQNPEKHGIIELPDGQLKLSDFLNTYESDNNYRDKSKLFDFISKNFNGPVWTNKLLDNYINGYGYNYKYGRTIEDPTKNTSKINFFKKVFNEKILTNVHQIFNYNEFSTLLSEALYTGKAIGLSYGPGGLRHSLGHIISVWGADLDADGNVVAIYVTDSDDKKLTIGDERVGLKRYKISTDDEGRARLTAYTETDNTGGQVRGIWTLDTGKQAWADYFDKTEQTGTDQAEQLEHHHHHH")
"443 ng/µL"
>>> observed("PRT-194 (enzyme) MANQEIRYSEVTPYHVTSVWTKGVTPPDHDFANFTQGEDVFHAPYVANQGWYDITKTFNGKDDLLCGAATAGNMLHWWFDQNKDQIKRYLEEHPEKQKINFNGEQMFDVKEAIDTKNHQLDSKLFEYFKEKAFPYLSTKHLGVFPDHVIDMFINGYRLSLTNHGPTPVKEGSKDPRGGIFDAVFTRGDQSKLLTSRHDFKEKNLKEISDLIKKELTEGKALGLSHTYANVRHSINHVINLWGADFDSNGNLKAIYVTDSDDKKLTISNASIGMKKYFVGVNSAGKVAISAKEIKEDNIGAQVLGLFTLSTGQDSWNQTN")
"0 ng/µL"

Lab note: measured Enzyme Activity Endpoint Assay (purified): scIgG of PRT-207 (enzyme) MEVVEVWPYGQNPNGKTEILSQTEDSESLQRLRDIEDFQAEKKKEGVVYTKWLDGVDVDDHDFRKIVDGNIAYYATPLLNGRGFYDINKDFNRDSDKCAAAVAANMFHYWLDRNRDNVDRFLKQNPEKHGIIELPDGQLKLSDFLNTYESDNGYRDKSKLFDFISNNFNGPVWTDKLLDNYINGYAYNYKYGRTIEDPTKNTSKINFFKEVFNEKILTNNHSIRNYNTFSDLLSEALYTGKAIGLSYGPAGLRHSLGHIISVWGADLDADGNVVAIYVTDSDDKKLTIGDERVGLKRYKVSSDDENRLRLTAYEETHNTGGQIRGIWTLDTGKQAWADYFDKTEQTGTDQAEQLEHHHHHH was 287 ng/µL

Origin of values: patent US20250027068A1
